Ref: patent US8815919B2

log10(Ki) for assorted compounds
- system: S1P1 (Homo sapiens)
- Sequence (P21453 whole entry, species assumed): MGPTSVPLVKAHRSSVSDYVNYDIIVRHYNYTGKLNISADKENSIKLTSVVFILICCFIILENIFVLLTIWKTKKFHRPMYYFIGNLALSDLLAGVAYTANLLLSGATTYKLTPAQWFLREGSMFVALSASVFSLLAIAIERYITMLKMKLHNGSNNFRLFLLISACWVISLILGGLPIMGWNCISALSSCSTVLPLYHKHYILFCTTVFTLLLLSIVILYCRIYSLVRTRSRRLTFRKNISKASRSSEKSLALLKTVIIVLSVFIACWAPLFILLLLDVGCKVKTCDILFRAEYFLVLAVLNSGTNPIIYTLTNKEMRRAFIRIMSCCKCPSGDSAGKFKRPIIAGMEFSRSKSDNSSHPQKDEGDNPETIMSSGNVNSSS
- assay.protocol: Receptor binding assay, [33P]sphingosine 1-phosphate competition, S1P1 membranes, WGA SPA beads
- condition.set: 96 well-plate; read-out: S1P1 binding Ki (M) (96 well-plate)
Structures can show the parent of a compound that is named as a salt.
Give log10 of Ki, with Ki taken in M.

Q: Which log10(Ki) value is on record for COCc1cc(-c2nc(-c3ccc(F)c(CN(C)CCC(=O)O)c3)no2)ccc1N1CCCCC1C (stereo not drawn) [Example 19, dihydrochloride salt] ?
Result: -9.71

Q: Which log10(Ki) value is on record for COCc1cc(-c2nc(-c3ccc(CN(C)CC(=O)O)c(F)c3)no2)ccc1-c1ccccc1C [Example 52, hydrochloride salt] ?
Result: -9.71

Q: Which log10(Ki) value is on record for COCc1cc(-c2nc(-c3cccc(CN(C)CC(=O)O)c3)no2)ccc1-c1ccc(F)c(F)c1C [Example 42, hydrochloride salt] ?
Result: -9.74

Q: Which log10(Ki) value is on record for COCc1cc(-c2nc(-c3ccc(C(=O)NCCC(=O)O)c(Cl)c3)no2)ccc1-c1ccccc1C [Example 15] ?
Result: -8.97

Q: Which log10(Ki) value is on record for COCc1cc(-c2nc(-c3cc(F)c(C(=O)NCCC(=O)O)cc3F)no2)ccc1-c1ccccc1C [Example 47] ?
Result: -9.07

Q: Which log10(Ki) value is on record for COCc1cc(-c2nc(-c3cccc(CC(=O)NCCC(=O)O)c3)no2)ccc1-c1ccccc1C [Example 43] ?
Result: -8.67

Q: Which log10(Ki) value is on record for COCc1cc(-c2nc(-c3cccc(CN(CC(=O)O)C(C)C)c3)no2)ccc1-c1ccccc1C [Example 58, hydrochloride salt] ?
Result: -9.41

Q: Which log10(Ki) value is on record for COCc1cc(-c2nc(-c3cccc(CC(=O)N(C)CC(=O)O)c3)no2)ccc1-c1ccccc1C [Example 44] ?
Result: -8.77

Q: Which log10(Ki) value is on record for CC1CCCCN1c1ccc(-c2nc(-c3cccc(COCC(=O)O)c3)no2)cc1C(F)(F)F (stereo not drawn) [Example 38, hydrochloride salt] ?
Result: -9.21

Q: Which log10(Ki) value is on record for CCc1ccccc1-c1ccc(-c2nc(-c3cccc(CNCCC(=O)O)c3)no2)cc1COC [Example 18, hydrochloride salt] ?
Result: -9.77

Continuing:
Q: Which log10(Ki) value is on record for COCc1cc(-c2nc(-c3cccc(CC(=O)NCCNC(C)=O)c3)no2)ccc1-c1ccccc1C [Example 25] ?
Result: -9.07

Q: Which log10(Ki) value is on record for COCc1cc(-c2nc(-c3cccc(CCN(C)CC(=O)OC(C)(C)C)c3)no2)ccc1-c1ccccc1C [Example 75] ?
Result: -8.52

Q: Which log10(Ki) value is on record for COCc1cc(-c2nc(-c3ccc(CN(C)CC(=O)O)cc3)no2)ccc1-c1ccccc1C [Example 51, hydrochloride salt] ?
Result: -9.47

Q: Which log10(Ki) value is on record for COCc1cc(-c2nc(-c3ccc(CCN(C)CC(=O)O)cc3)no2)ccc1-c1ccccc1C [Example 87] ?
Result: -9.37

Q: Which log10(Ki) value is on record for COCc1cc(-c2nc(-c3ccc(CN(C)CCC(=O)O)cc3)no2)ccc1-c1ccccc1C [Example 74, hydrochloride salt] ?
Result: -9.70
